Here is a set of molecules with reported Ki for UniProtKB P61169, compiled from the literature.
Sequence (P61169 whole entry): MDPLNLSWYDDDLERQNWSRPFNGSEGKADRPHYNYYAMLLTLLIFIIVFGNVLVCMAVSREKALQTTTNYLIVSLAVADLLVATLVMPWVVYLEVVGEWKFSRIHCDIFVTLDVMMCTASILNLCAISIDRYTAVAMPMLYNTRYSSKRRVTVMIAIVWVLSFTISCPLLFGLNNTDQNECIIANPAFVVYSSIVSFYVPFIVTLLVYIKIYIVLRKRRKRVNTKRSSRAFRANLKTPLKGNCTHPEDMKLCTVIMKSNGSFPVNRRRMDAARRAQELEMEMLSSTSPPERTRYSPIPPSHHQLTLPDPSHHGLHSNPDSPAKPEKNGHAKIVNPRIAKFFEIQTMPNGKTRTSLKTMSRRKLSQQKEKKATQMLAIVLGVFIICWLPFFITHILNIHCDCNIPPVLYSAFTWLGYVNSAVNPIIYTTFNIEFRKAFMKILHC
Answers are plain numbers, in nM.

# annotated cases, reported Ki shown
- molecule: "O=C(CCCN1CCN(c2nsc3ccccc23)CC1)c1cc2c3c(c1)CCC(=O)N3CCC2"
  measurement: 91.4
- molecule: "CCCN(CCN1CCN(c2ccccc2)CC1)[C@@H]1CCc2ccc(N)cc2C1"
  measurement: 601
- molecule: "CCCN(CCN1CCN(Cc2c[nH]c3cccc(Cl)c23)CC1)C1CCc2nc(N)sc2C1 (racemic)"
  measurement: 1160
- molecule: "CN1CCc2ccc(OCCCN3CCN(c4ncccn4)CC3)cc2C1=O"
  measurement: 1370

Can you look up the measured Ki of Cc1cc(=O)oc2cc(OCCCN3CCC(c4noc5cc(F)ccc45)CC3)ccc12 for me?
116
